target: Torsin-1A-interacting protein 2 (Homo sapiens) (UniProt Q8NFQ8); test: LULL1 binders on small-molecule microarray, primary screen, cell lysate, human LULL1 lysate, 635/667 nm fluorescence (AID 1092); conditions: hLULL1 lysate binding, 635 nm fluorescence, higher = more signal;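 note: probe is lysate of COS7 cells overexpressing human LULL1; score merges per-feature 667 nm fluorescence with signal-to-noise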
Sequence (Q8NFQ8 whole entry, looked up): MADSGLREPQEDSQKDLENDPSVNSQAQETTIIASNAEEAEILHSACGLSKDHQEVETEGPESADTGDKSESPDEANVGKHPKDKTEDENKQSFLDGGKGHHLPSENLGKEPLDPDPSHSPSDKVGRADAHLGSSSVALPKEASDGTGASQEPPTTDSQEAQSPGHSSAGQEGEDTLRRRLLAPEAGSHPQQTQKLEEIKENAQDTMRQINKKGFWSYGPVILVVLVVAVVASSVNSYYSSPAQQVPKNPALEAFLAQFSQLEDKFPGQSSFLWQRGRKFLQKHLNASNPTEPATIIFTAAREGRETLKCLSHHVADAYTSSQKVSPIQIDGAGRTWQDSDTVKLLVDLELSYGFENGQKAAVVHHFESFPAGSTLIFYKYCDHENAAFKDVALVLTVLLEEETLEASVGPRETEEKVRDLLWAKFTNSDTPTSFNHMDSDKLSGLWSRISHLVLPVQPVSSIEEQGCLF
// FALSE strictly below 1 in composite z-score; TRUE otherwise

-- ask Textbook exercise: given the entry O=C(NN=C1C[C@@H](O)[C@@H](O)[C@@H]2[C@@H]3C(=O)N(c4cccc(Oc5ccccc5)c4)C(=O)[C@@H]3CC[C@H]12)OCc1ccccc1 , state whether its composite z-score is greater than or equal to 1.
-- reply FALSE

-- ask Textbook exercise: given the entry CO[C@@H]1COC(=O)CC=C[C@@H](C)COC(=O)[C@H](COCc2ccccc2)NC(=O)CC=C[C@H]1C , state whether its composite z-score is greater than or equal to 1.
-- reply FALSE

-- ask Textbook exercise: given the entry CN(C)C(=O)[C@@]1(Cc2ccccc2)N=C(c2ccc(OCCCO)cc2)O[C@H]1c1ccccc1CN=[N+]=[N-] , state whether its composite z-score is greater than or equal to 1.
-- reply TRUE

-- ask Textbook exercise: given the entry O=C1O[C@@H](c2ccccc2)[C@@H](c2ccccc2)N2[C@@H](c3ccc(O)cc3)[C@]3(C(=O)Nc4ccccc43)[C@@H](C(=O)O)[C@H]12 , state whether its composite z-score is greater than or equal to 1.
-- reply TRUE

-- ask Textbook exercise: given the entry CCOC(=O)[C@H](Cc1ccccc1)NC(=O)CCC1CC(OC(=O)NCc2ccc3c(c2)OCO3)CC2(CCCC(COC(=O)NCC(c3ccccc3)c3ccccc3)O2)O1 (stereo not given in full) , state whether its composite z-score is greater than or equal to 1.
-- reply TRUE

-- ask Textbook exercise: given the entry C#CCCCON=C1C[C@@H](O)[C@@H](O)[C@@H]2[C@@H]3C(=O)N([C@@H](C)c4ccccc4)C(=O)[C@@H]3CC[C@H]12 , state whether its composite z-score is greater than or equal to 1.
-- reply FALSE

-- ask Textbook exercise: given the entry COCCOC(=O)N1C(=O)[C@@]2(c3cc(C#CCNC(N)=O)ccc31)[C@H](c1ccc(O)cc1)N1[C@H](c3ccccc3)[C@H](c3ccccc3)OC(=O)[C@H]1[C@@H]2C(=O)N1CCCCCCC1 , state whether its composite z-score is greater than or equal to 1.
-- reply FALSE

Cited source: PubChem BioAssay
